Origin of measurements: the METLIN SMRT retention time set (Domingo-Almenara et al. 2019)

Assay: gradient 5% acetonitrile 3 min, to 50% in 2 min, to 85% in 15 min, held 3 min, 100 µL/min
Details: column: Zorbax Extend-C18 2.1 x 50 mm; eluents: water / acetonitrile, 0.1% formic acid
Reported RP-LC retention time values for a set of compounds
Answer format: numeric, s implied, no suffix.

[in] // query RP-LC retention time value for entry `COc1cc(-c2noc(CN3C(=O)COc4ccc(C)cc43)n2)cc(OC)c1OC`
[out] 985

[in] Which RP-LC retention time is reported for this compound? `Cc1sc(NC(=O)CCCC(=O)O)nc1-c1ccccc1`
[out] 752

[in] Suppose we examine the compound `Cc1ccc(-n2cc3c(c(C(=O)Nc4ccc5c(c4)OCCO5)c2=O)CC(C)(C)CC3=O)cc1` ; what RP-LC retention time value has been reported?
[out] 1070

----------
Assay: gradient 5% acetonitrile 3 min, to 50% in 2 min, to 85% in 15 min, held 3 min, 100 µL/min
Details: column: Zorbax Extend-C18 2.1 x 50 mm; eluents: water / acetonitrile, 0.1% formic acid
MEASUREMENT KIND: RP-LC retention time (s)
Use s as the unit, but write only the number.

Sample answers from the record:
[in] Given the entry O=C(NCC1CCCO1)c1csc(N2CCN(c3ccc(F)cc3)CC2)n1 (centres undefined) , report its measured RP-LC retention time.
[out] 902

[in] May I ask what RP-LC retention time has been recorded for `COc1ccc(OC)c(-c2cn3ccn(-c4ccc(OC)c(Cl)c4)c(=O)c3n2)c1` ?
[out] 885

[in] Which RP-LC retention time is reported for this molecule? `COc1ccc(OC)c(S(=O)(=O)Nc2cc(-c3nc4cccnc4s3)ccc2C)c1`
[out] 888

[in] Entry `CCn1nccc1C(=O)Nc1cc(-c2cc3c(OC)cccc3n2CC)[nH]n1` : reported RP-LC retention time = ?
[out] 879

[in] Which RP-LC retention time value belongs to `COc1cccc(-c2noc(Cn3ccn(-c4cc(C)ccc4C)c(=O)c3=O)n2)c1` ?
[out] 911

New cases:
[in] Which value of RP-LC retention time has been reported for COc1ccc(CC(=O)N2CCC3(C2)C(=O)Nc2ccc(OC)cc23)cc1 (centres undefined) in the records?
[out] 709

[in] Would you kindly share the measured RP-LC retention time for `CCOc1ccc(NC(=O)C2CCN(S(=O)(=O)c3cn(CC)cn3)CC2)cc1` ?
[out] 784

[in] Given the molecule `COCCC1CCN(C(=O)c2cc(-c3ccccc3)n[nH]2)CC1` , what is its reported RP-LC retention time?
[out] 758

[in] I have this molecule here, `Cc1cc(C)cc(NC(=O)CN2C(=O)COc3ccc(C(=O)N4CCCC4)cc32)c1` , and I need its recorded RP-LC retention time.
[out] 773

----------
Assay: gradient 5% acetonitrile 3 min, to 50% in 2 min, to 85% in 15 min, held 3 min, 100 µL/min
Conditions: column: Zorbax Extend-C18 2.1 x 50 mm; eluents: water / acetonitrile, 0.1% formic acid
Entries and their RP-LC retention time values follow.
Report as a plain number; the unit s is understood.

[in] Item `O=C(CCCNC(=O)c1cc(-c2cccs2)[nH]n1)Nc1cccc2cccnc12` has what recorded RP-LC retention time?
[out] 697

Here is another compound to look at.
[in] Can you share its RP-LC retention time? I mean this compound: `COc1cccc(-c2nc3nc(C)c(CCC(=O)NC4CCCCC4)c(C)n3n2)c1`
[out] 827

----------
Test: gradient 5% acetonitrile 3 min, to 50% in 2 min, to 85% in 15 min, held 3 min, 100 µL/min
Settings: column: Zorbax Extend-C18 2.1 x 50 mm; eluents: water / acetonitrile, 0.1% formic acid
Reported RP-LC retention time values are given for each entry in this list.
The response must be a number in s with no trailing unit.

[in] Quick one: RP-LC retention time for `CCN1C(=O)c2cccnc2Sc2cc(CNC(=O)c3cnccn3)ccc21` ?
[out] 683

[in] What RP-LC retention time value was documented for this compound, CCOc1ccc(C(C)NC(=O)C2CCN(c3cnc4nccnc4c3)CC2)cc1 (centres undefined) ?
[out] 712

[in] May I ask what RP-LC retention time has been recorded for CC(NC(=O)C(=O)NCc1nc(-c2ccccc2)no1)c1ccccc1 (centres undefined) ?
[out] 856

[in] Give the measured RP-LC retention time of `CCc1ccccc1S(=O)(=O)N(C)CC1CCOCC1` .
[out] 902

[in] Given the compound `CCc1cc(=O)n(CC(=O)Nc2c(C)cccc2C)c(N2CCOCC2)n1` , what is its reported RP-LC retention time?
[out] 736

[in] # query: RP-LC retention time of entry `CC1CCN(Cc2csc(N3CCN(C(=O)CSc4ccccc4)CC3)n2)CC1`
[out] 1130

[in] I have this compound here, `CCc1ccc(NC(=O)C2CCN(S(=O)(=O)c3cc(-c4noc(C5CC5)n4)cs3)CC2)cc1` , and I need its recorded RP-LC retention time.
[out] 1100

[in] // returns reported RP-LC retention time for input CCc1nc(-c2csc(S(=O)(=O)N3CCCC(C(=O)NCc4cccnc4)C3)c2)no1 (centres undefined)
[out] 660

[in] Entry O=C(c1ccnc(N2CCNC(c3ccccc3)C2)c1)N1CCCN(c2ncccn2)CC1 (centres undefined) : reported RP-LC retention time = ?
[out] 596

[in] Could you share which RP-LC retention time value was measured for `O=C(c1cccnc1)N1CCC(COCc2ccccc2)CC1` ?
[out] 747

New cases:
[in] RP-LC retention time for `CCc1ccc(N(CC)C(=O)Cn2cnc3nc4c(cc3c2=O)CCCC4)cc1` ?
[out] 885

[in] Please report the recorded RP-LC retention time for `CCS(=O)(=O)N1CCCc2cc(C(=O)NCc3ccco3)ccc21` .
[out] 945

[in] // returns reported RP-LC retention time for input `O=C(c1ccn[nH]1)N1CCC[C@H]1c1nc(C2CCOCC2)n[nH]1`
[out] 558

[in] Quick one: RP-LC retention time of `CC(C)c1cc(N2CCN(C(=O)c3ccc(N(C)C)cc3)CC2)nc2nncn12` ?
[out] 606

[in] Could you share which RP-LC retention time value was measured for `Cn1cc(C(=O)NCc2ccc(Cl)cc2)c(S(=O)(=O)N2CCSCC2)n1` ?
[out] 909

[in] Look up RP-LC retention time for this compound: `COc1ccc(-c2c(C)noc2NC(C)=O)cc1S(=O)(=O)Nc1ccc(F)cc1F`
[out] 743

[in] Query: RP-LC retention time; subject: `CCCC(=O)Nc1cnc(-c2ccc(Cl)cc2)nc1`
[out] 958

[in] Endpoint output: RP-LC retention time of `COc1cccc(-c2noc(Cn3ccn(-c4c(C)cccc4C)c(=O)c3=O)n2)c1` . Value?
[out] 872

[in] Request the reported RP-LC retention time associated with `CCN1CCCn2cc(S(=O)(=O)Nc3ccc(F)cc3Cl)cc2C1=O`
[out] 738

[in] Request the reported RP-LC retention time associated with `Cc1cccc(NS(=O)(=O)c2cc3n(c2)CCN(CC(C)C)C3=O)c1C`
[out] 852

[in] Request the reported RP-LC retention time associated with `Cc1nc(-c2noc(-c3ccccc3)n2)cn1CC(=O)NCc1ccc(F)c(Cl)c1`
[out] 866

----------
Assay: gradient 5% acetonitrile 3 min, to 50% in 2 min, to 85% in 15 min, held 3 min, 100 µL/min
Conditions: column: Zorbax Extend-C18 2.1 x 50 mm; eluents: water / acetonitrile, 0.1% formic acid
MEASUREMENT KIND: RP-LC retention time

[in] Value lookup for RP-LC retention time; key = CCC(CC)C(=O)N1CCC2(CC1)CN(C)CC2c1nc(-c2ccncc2)n[nH]1 (stereo not drawn)
[out] 565 s

[in] Field request: RP-LC retention time | item: CO[C@@H]1C(O)[C@H](O[C@H]2CC[C@@]3(C=O)[C@H](CC[C@@H]4[C@@H]3CC[C@]3(C)[C@@H](C5=CC(=O)OC5)CC[C@]43O)C2)OC(C)[C@@H]1O (stereo partly drawn)
[out] 772 s

[in] Any idea what its RP-LC retention time is? The molecule is `Cc1nc(-c2cn(C(C)C)c3ncccc23)sc1C(=O)NCc1ccccc1`
[out] 995 s

***
[in] Entry CCCC(=O)N1CCc2c([nH]c3ccccc23)C12C(=O)Nc1ccc(Br)cc12 (stereo not drawn) : reported RP-LC retention time = ?
[out] 924 s

[in] So what's the measured RP-LC retention time for this one? `CCCS(=O)(=O)c1nc2ccc(NS(=O)(=O)c3ccc(C(C)C)cc3)cc2s1`
[out] 1050 s

----------
Catalogue of compounds with associated RP-LC retention time
Assay: gradient 5% acetonitrile 3 min, to 50% in 2 min, to 85% in 15 min, held 3 min, 100 µL/min
Conditions: column: Zorbax Extend-C18 2.1 x 50 mm; eluents: water / acetonitrile, 0.1% formic acid
Numbers only; they are read as s.

[in] Value lookup for RP-LC retention time; key = `Cc1oc(C2CCN(C(=O)Nc3ccc(F)cc3F)CC2)nc1C(=O)N1CCCC1`
[out] 744

Others:
[in] Fill in the blank: the reported RP-LC retention time of `O=S(=O)(c1cccn2c(SCc3c(F)cccc3Cl)nnc12)N1CCCC1` is ____.
[out] 855

[in] Please look up its RP-LC retention time: Cc1ccc(NC(=O)N2CCCC2c2nncn2C2CCCC2)cc1F (centres undefined)
[out] 728

[in] If you can, please state the reported RP-LC retention time value of `O=C(CN1CCC(c2nc(-c3cccs3)no2)CC1)NCc1ccc2c(c1)OCO2` .
[out] 672
